Tested on: HepG2
Assay Info: Anticancer activity against human HepG2 cells after 48 hrs by MTT assay
Assay type: functional, cell-based
Experimental Context: HepG2, 48 h
Quick list: IC50 per entry.
Result Type: IC50

| Compound | Result Type | Reading |
| --- | --- | --- |
| CC1CN(c2c(F)c(N)c3c(=O)c(C(=O)O)cn(C4CC4)c3c2F)CC(C)N1CN1C(=O)/C(=N\c2ccc(S(=O)(=O)Nc3ncccn3)cc2)c2ccccc21 (stereo not given) | IC50 | 18.3 to 50 µg/mL |
| CC1CN(c2c(F)c(N)c3c(=O)c(C(=O)O)cn(C4CC4)c3c2F)CC(C)N1CN1C(=O)C(=O)c2ccccc21 (stereo not given) | IC50 | 18.3 to 50 µg/mL |
| COc1ncnc(NS(=O)(=O)c2ccc(/N=C3\C(=O)N(CN4C(C)CN(c5c(F)c(N)c6c(=O)c(C(=O)O)cn(C7CC7)c6c5F)CC4C)c4ccccc43)cc2)c1OC (stereo not given) | IC50 | 18.3 to 33.6 µg/mL |
| COc1cc(Cc2cnc(/N=C3\C(=O)N(CN4C(C)CN(c5c(F)c(N)c6c(=O)c(C(=O)O)cn(C7CC7)c6c5F)CC4C)c4ccccc43)nc2N)cc(OC)c1OC (stereo not given) | IC50 | 18.3 to 50 µg/mL |
| Cc1cc(C)nc(NS(=O)(=O)c2ccc(/N=C3\C(=O)N(CN4C(C)CN(c5c(F)c(N)c6c(=O)c(C(=O)O)cn(C7CC7)c6c5F)CC4C)c4ccccc43)cc2)n1 (stereo not given) | IC50 | 18.3 to 50 µg/mL |
